Molecular target: MMP-1 (Homo sapiens, UniProt P03956)
Sequence (P03956 100-269 limits assumed): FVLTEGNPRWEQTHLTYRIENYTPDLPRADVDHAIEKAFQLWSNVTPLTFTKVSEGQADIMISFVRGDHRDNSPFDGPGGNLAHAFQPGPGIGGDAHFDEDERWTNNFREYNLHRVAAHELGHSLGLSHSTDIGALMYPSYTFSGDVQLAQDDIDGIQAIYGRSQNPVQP
pIC50: −log10 of the molar value.
Tick Fulfilled if pIC50 is 4 or greater. Tick Not fulfilled if pIC50 is less than 4.

compound | class
Cc1c(C(=O)Nc2ccc(-c3ccc(S(=O)(=O)N[C@@H](C(=O)O)C(C)C)cc3)cc2)oc2ccccc12 [Example 74] | Fulfilled
Cc1c(C(=O)Nc2ccc(-c3ccc(S(=O)(=O)N[C@H](C(=O)O)C(C)C)cc3)cc2)oc2cccc(-c3cccc([N+](=O)[O-])c3)c12 [Example 110] | Fulfilled
COc1c(Br)ccc2oc(COc3ccc(-c4ccc(S(=O)(=O)N[C@@H](C(=O)O)C(C)C)cc4)cc3)c(C)c12 [Example 136] | Not fulfilled
Cc1c(C(=O)Nc2ccc(-c3ccc(S(=O)(=O)N[C@H](C(=O)O)C(C)C)cc3)cc2)oc2ccccc12 [Example 83] | Fulfilled
Cc1c(C(=O)Nc2ccc(-c3ccc(S(=O)(=O)N[C@H](C(=O)O)C(C)C)cc3)cc2)oc2cccc(Oc3ccccc3)c12 [Example 155] | Fulfilled
